# experiment: TLR3 IRF3 reporter activation blockers – cell-based, poly I:C stimulus, luciferase, 10K MLSCN set, primary screen (AID 602277)
# conditionDescription: HEK293-TLR3 RL24 IRF3 luciferase reporter, at 10 µM, active compounds read high
readoutLabel: inhibition (%)
// note: answer is a bare numeric in %

Example entries and their recorded answers appear below.
compound: S=C(NCC1CCCO1)n1nnc2ccccc21 (centres undefined)
readoutLabel: inhibition
unitSymbol: %
measValue: 13.5
//
compound: Cc1cc(C)c(C)c(S(=O)(=O)Nc2ccc(O)cc2)c1C
readoutLabel: inhibition
unitSymbol: %
measValue: 18.5
//
compound: O=c1c2cc3ccccc3n2cnn1Cc1ccccc1F
readoutLabel: inhibition
unitSymbol: %
measValue: -7.8
//
compound: COCCOC(=O)C1=C(C)OC(N)=C(C#N)C1c1ccc2c(c1)OCO2 (centres undefined)
readoutLabel: inhibition
unitSymbol: %
measValue: 23.2
//
compound: Nc1cc(-c2ccccc2)ccc1O
readoutLabel: inhibition
unitSymbol: %
measValue: 1.06
//
compound: CC(=O)n1nc(-c2ccco2)nc1SCc1ccccc1
readoutLabel: inhibition
unitSymbol: %
measValue: -108
//
compound: CC(=O)NC1CC2CCCC(C1)N2CC(=O)Nc1ccccc1 (centres undefined)
readoutLabel: inhibition
unitSymbol: %
measValue: -5.22
//
compound: COc1ccc(C(=O)NCCC(C)C)cc1S(=O)(=O)N1CCOCC1
readoutLabel: inhibition
unitSymbol: %
measValue: 19.8

Let's switch to this compound now.
What value of inhibition has been recorded for this entry: O=C(O)c1cccc(NC(=O)C2C3C=CC(C3)C2C(=O)OCC(F)(F)C(F)F)c1 (centres undefined) 26
